Data provenance: patent US4698327A

# Tested on: Staphylococcus epidermidis EPI1
# Format: cell-based
# experimental-context: agar dilution

molecule	MIC
CCCCCCCCCCNC1(C)CC(OC2C(Oc3c4cc5cc3Oc3ccc(cc3Cl)C(O)C3NC(=O)C(NC(=O)C5NC(=O)C(CC(N)=O)NC(=O)C(NC(=O)C(N)CC(C)C)C(O)c5ccc(c(Cl)c5)O4)c4ccc(O)c(c4)-c4c(O)cc(O)cc4C(C(=O)O)NC3=O)OC(CO)C(O)C2O)OC(C)C1O (stereo not drawn) [Compound 26, N^van --(n-decyl)-A51568A]	0.5 µg/mL
CCCCNC1(C)CC(OC2C(Oc3c4cc5cc3Oc3ccc(cc3Cl)C(O)C(NC(=O)C(CC(C)C)N(C)CCCC)C(=O)NC(CC(N)=O)C(=O)NC5C(=O)NC3C(=O)NC(C(=O)NC(C(=O)O)c5cc(O)cc(O)c5-c5cc3ccc5O)C(O)c3ccc(c(Cl)c3)O4)OC(CO)C(O)C2O)OC(C)C1O (stereo not drawn) [Compound 19, N^van, N^leu --di(n-butyl)vancomycin]	2 µg/mL
CCCCCCCNC1(C)CC(OC2C(Oc3c4cc5cc3Oc3ccc(cc3Cl)C(O)C(NC(=O)C(CC(C)C)N(C)CCCCCCC)C(=O)NC(CC(N)=O)C(=O)NC5C(=O)NC3C(=O)NC(C(=O)NC(C(=O)O)c5cc(O)cc(O)c5-c5cc3ccc5O)C(O)c3ccc(c(Cl)c3)O4)OC(CO)C(O)C2O)OC(C)C1O (stereo not drawn) [Compound 12, N^van, N^leu --di(n-heptyl)vancomycin]	2 µg/mL
